- System: Ipomoea hederacea (IPOHE)
- ASSAY PROCEDURE: Post-emergence Test (glasshouse, percentage damage to the plant)
- Format: in vivo
- RUN CONDITIONS: post-emergence; 1000 g/ha unless otherwise stated; evaluated after 13 days
EXPERIMENTAL READOUT: IPOHE, percentage damage caused to the plant (five-point scale)

Solved entries:
-- ask Tell me reported IPOHE, percentage damage caused to the plant (five-point scale) for `CCn1c(CCOC)c(-c2ccc(Cl)cc2)c(=O)c(C(=O)OC)c1-c1ccc(Cl)c(Cl)c1` , tested with Ipomoea hederacea (IPOHE).
-- reply 1 (1=0-20%)

-- ask Tell me reported IPOHE, percentage damage caused to the plant (five-point scale) for `CCn1c(C)c(-c2ccc(F)cc2F)c(=O)c(C(=O)O)c1-c1cnc(Cl)c(Cl)c1` , tested with Ipomoea hederacea (IPOHE).
-- reply 3 (3=41-60%)

-- ask Tell me reported IPOHE, percentage damage caused to the plant (five-point scale) for `CCn1c(C)c(-c2cccc3c2OC(F)(F)O3)c(=O)c(C(=O)O)c1-c1ccc(Cl)c(Cl)c1` , tested with Ipomoea hederacea (IPOHE).
-- reply 1 (1=0-20%)

Field: next compound
-- ask Tell me reported IPOHE, percentage damage caused to the plant (five-point scale) for `CCn1c(C)c(-c2cc(OC(C)C)c(Cl)cc2F)c(=O)c(C(=O)O)c1-c1ccc(F)c(F)c1` , tested with Ipomoea hederacea (IPOHE).
-- reply 3 (3=41-60%)
